MIC values for the molecules below.
test system: Staphylococcus aureus; assay: Antistaphylococcal activity against aminoglycosides/tetracycline-resistant Staphylococcus aureus NRS-1 after 18 hrs by two-fold serial dilution method; format: functional; conditions: NRS-1, 18 h

>>> value("CC(C)c1cc2c(cc1Br)[C@@]1(C)CCC[C@@](C)(C(=O)O)[C@@H]1C/C2=N\\OCCNS(=O)(=O)c1ccccc1Cl")
"1.56 to 3.13 µg/mL"
>>> value("Cc1ccccc1S(=O)(=O)NCCO/N=C1\\C[C@H]2[C@](C)(C(=O)O)CCC[C@]2(C)c2cc(Br)c(C(C)C)cc21")
"1.56 to 3.13 µg/mL"

Shift focus to the following entry.
Identify MIC associated with the molecule CC(C)c1cc2c(cc1Br)[C@@]1(C)CCC[C@@](C)(C(=O)O)[C@@H]1C/C2=N\OCCNS(=O)(=O)c1ccccc1
1.56 to 3.13 µg/mL
